Assay: Tmax in dog at 3 mg/kg, po
Format: ADME, organism-based, Canis lupus familiaris
Details: in vivo
property: Tmax (h)
Form entry: value (h) — number only.

Which Tmax is reported for this compound? CC(C)C[C@](C)(N)COc1ccc(-c2ccnc(C(F)F)c2)nc1C(F)F [PILAVAPADIN]
1.3

---

Test: Oral bioavailability in rat at 3 mg/kg
Assay type: ADME, organism-based
Details: in vivo
property: bioavailability (%)
Form entry: value (%) — number only.

Which bioavailability is reported for this compound? CC(C)C[C@](C)(N)COc1ccc(-c2ccnc(C(F)F)c2)nc1C(F)F [PILAVAPADIN]
50

---

Reported remaining at 10 min, 0.5 µM values are given for each entry in this list.
Target: Cytochrome P450 (Homo sapiens, UniProt P04798+P05177+P05181+P08684+P10632+P10635+P11509+P11712+P13584+P20813+P20815+P20853+P24462+P24903+P33260+P33261+P51589+P78329+P98187+Q02928+Q08477+Q16678+Q16696+Q5TCH4+Q6VVX0+Q7Z449+Q8TAV3+Q96SQ9+Q9HB55)
Experiment: Metabolic stability in human liver microsomes assessed as CYP450-mediated metabolism by measuring parent compound remaining at 0.5 uM incubated for 10 mins in presence of NADPH by LC-MS/MS analysis
Format: ADME
Conditions: read-out: Stability
Form entry: value (%) — number only.

Example entries and their recorded answers appear below.
[
  {
    "test smiles": "Cc1cc(-c2ccc(OC[C@@](C)(N)CC(C)C)c(C(F)F)n2)ccn1",
    "remaining at 10 min, 0.5 µM / %": 81
  },
  {
    "test smiles": "Cc1cc(-c2cnc(OC[C@@](C)(N)CC(C)C)c(C(F)F)c2)ccn1",
    "remaining at 10 min, 0.5 µM / %": 43
  },
  {
    "test smiles": "CC(C)C[C@](C)(N)COc1ncc(-c2ccnc(Cl)c2)cc1C(F)F",
    "remaining at 10 min, 0.5 µM / %": 89
  },
  {
    "test smiles": "CC(C)C[C@](C)(N)COc1ccc(-c2ccnc(C(F)F)c2)cc1C(F)(F)F",
    "remaining at 10 min, 0.5 µM / %": 94
  },
  {
    "test smiles": "Cc1cc(-c2ccc(OC[C@@](C)(N)CC(C)C)c(C(F)F)c2)ccn1",
    "remaining at 10 min, 0.5 µM / %": 74
  }
]

Which remaining at 10 min, 0.5 µM is reported for this compound? CC(C)C[C@](C)(N)COc1ccc(-c2ccnc(C(F)F)c2)cc1C(F)F
96

---

Test: Clearance in mouse at 2 mg/kg, iv
Format: ADME, organism-based
Conditions: in vivo
property: clearance (mL/min/kg)
Form entry: value (mL/min/kg) — number only.

Which clearance is reported for this compound? CC(C)C[C@](C)(N)COc1ccc(-c2ccnc(C(F)F)c2)nc1C(F)F
5

---

Assay: Drug concentration in overnight fasted Sprague-Dawley rat spinal cord with streptozotocin induced diabetic peripheral neuropathic mechanical allodynia at 0.3 mg/kg, po measured at 5.5 hrs post dose
Type: ADME, organism-based
Details: read-out: Ct
property: concentration at 5.5 h (nM)
Form entry: value (nM) — number only.

Which concentration at 5.5 h is reported for this compound? CC(C)C[C@](C)(N)COc1ccc(-c2ccnc(C(F)F)c2)nc1C(F)F [PILAVAPADIN]
206

Just for reference, ChEMBL document CHEMBL5046296 is where these values come from.
